- MEASUREMENT TARGET: Delta-type opioid receptor (Homo sapiens, UniProt P41143)
- Sequence (P41143 whole entry): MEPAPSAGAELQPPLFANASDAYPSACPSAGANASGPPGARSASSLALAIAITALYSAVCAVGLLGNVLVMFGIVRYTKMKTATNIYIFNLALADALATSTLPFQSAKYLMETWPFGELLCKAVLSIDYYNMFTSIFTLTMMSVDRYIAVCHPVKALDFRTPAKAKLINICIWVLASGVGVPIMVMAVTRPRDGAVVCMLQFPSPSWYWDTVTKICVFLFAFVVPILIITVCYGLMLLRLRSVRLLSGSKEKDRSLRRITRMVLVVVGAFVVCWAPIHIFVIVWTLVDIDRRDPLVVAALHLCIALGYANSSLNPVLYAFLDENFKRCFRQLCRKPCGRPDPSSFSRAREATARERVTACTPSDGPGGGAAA
- ASSAY REMARKS: Inhibition of [3H]C1-DPDPE binding to human delta opioid receptor expressed in CHO cells
REPORTED ENDPOINT: Ki (nM)
Your answer is read as nM, so omit the unit and give the number.

Worked examples, 5 compounds total:
compound="C=CCN(CC=C)C1CCc2ccc(O)cc2C1(C)C (stereo not given)" assay_value=672
compound="CCCN(C)C1CCc2ccc(O)cc2C1(C)C (stereo not given)" assay_value=2090
compound="CC1(C)c2cc(O)ccc2CCC1N(CC1CC1)CC1CC1 (stereo not given)" assay_value=5770
compound="CN(C)C1CCc2ccc(O)cc2C1(C)C (stereo not given)" assay_value=4010
compound="CC1(C)c2cc(O)ccc2CCC1NCC1CC1 (stereo not given)" assay_value=3830

Give Delta-type opioid receptor (Homo sapiens, UniProt P41143) Ki for C=CCN(C)C1CCc2ccc(O)cc2C1(C)C (stereo not given)
2220

Now consider CN(CC1CC1)C1CCc2ccc(O)cc2C1(C)C (stereo not given) .
601

Subsequent entry: "CO[C@H]1Cc2ccc(O)cc2C(C)(C)[C@@H]1N"
2430

Next compound up: "CO[C@H]1Cc2ccc(O)cc2C(C)(C)[C@@H]1NC/C=C/c1ccccc1"
22.4

Input CC1(C)c2cc(O)ccc2CCC1NC/C=C/c1ccccc1 (stereo not given)
472

Same read-out for CN(C/C=C/c1ccccc1)C1CCc2ccc(O)cc2C1(C)C (stereo not given) ?
591

Now the compound C=CCNC1CCc2ccc(O)cc2C1(C)C (stereo not given)
5830

Subsequent entry: CCCN(CCC)C1CCc2ccc(O)cc2C1(C)C (stereo not given)
2720
